biological target: Calcium/calmodulin-dependent protein kinase type II subunit gamma (Homo sapiens); details: at 1 µM
MEASURED ENDPOINT: residual activity

QUERY SMILES: CCCC(=O)Oc1ccc2[nH]c(C(=O)c3cc4ccccc4[nH]3)cc2c1
VALUE OBSERVED: 99%

QUERY SMILES: CCN(CC)CCNC(=O)c1c(C)[nH]c(/C=C2\C(=O)Nc3ccc(Cl)cc32)c1C
VALUE OBSERVED: 3%

QUERY SMILES: O=C1NC(=O)c2c1c1c3ccccc3[nH]c1n1cncc21
VALUE OBSERVED: 15%

QUERY SMILES: O=C1NC(=O)C(c2cn(CCCO)c3ncccc23)=C1c1cnccn1
VALUE OBSERVED: 88%

QUERY SMILES: COc1ccc2c(c1)c(C1=C(c3c[nH]c4ccccc34)C(=O)NC1=O)cn2CCCN(C)C
VALUE OBSERVED: 62%

---

molecular target: Fibroblast growth factor receptor 4 (Homo sapiens) (UniProt P22455); settings: at 10 µM
Sequence (P22455 22-802 limits assumed): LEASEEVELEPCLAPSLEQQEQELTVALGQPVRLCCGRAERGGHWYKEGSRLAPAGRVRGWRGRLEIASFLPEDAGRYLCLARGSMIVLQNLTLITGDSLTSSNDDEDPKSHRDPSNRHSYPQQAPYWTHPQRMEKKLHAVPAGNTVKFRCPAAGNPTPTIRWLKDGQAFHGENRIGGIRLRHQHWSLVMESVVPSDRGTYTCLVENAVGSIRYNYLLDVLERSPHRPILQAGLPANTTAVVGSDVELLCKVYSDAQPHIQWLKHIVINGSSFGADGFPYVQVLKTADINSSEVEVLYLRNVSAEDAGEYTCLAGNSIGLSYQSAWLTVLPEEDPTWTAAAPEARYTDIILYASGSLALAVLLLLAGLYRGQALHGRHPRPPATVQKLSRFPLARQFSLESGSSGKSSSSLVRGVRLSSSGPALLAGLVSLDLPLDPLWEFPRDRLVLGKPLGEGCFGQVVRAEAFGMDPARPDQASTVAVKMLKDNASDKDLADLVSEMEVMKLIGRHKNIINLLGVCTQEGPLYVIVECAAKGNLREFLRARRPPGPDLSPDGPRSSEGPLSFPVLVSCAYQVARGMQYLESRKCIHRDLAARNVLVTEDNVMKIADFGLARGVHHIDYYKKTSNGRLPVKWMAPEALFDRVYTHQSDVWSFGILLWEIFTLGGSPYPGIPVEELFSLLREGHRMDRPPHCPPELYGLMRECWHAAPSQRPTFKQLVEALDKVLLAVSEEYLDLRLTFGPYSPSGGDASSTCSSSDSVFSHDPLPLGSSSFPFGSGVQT
Tag: Fulfilled if measured residual activity is not below 90%, Not fulfilled if it is.

MOLECULE: N#C/C(=C1/Nc2ccccc2S1)c1ccnc(NCCc2cccnc2)n1
ASSAYED SYSTEM: Fibroblast growth factor receptor 4 (Homo sapiens) (UniProt P22455)
CATEGORY LABEL: Not fulfilled
--
MOLECULE: Oc1cccc(-c2nc(N3CCOCC3)c3oc4ncccc4c3n2)c1
ASSAYED SYSTEM: Fibroblast growth factor receptor 4 (Homo sapiens) (UniProt P22455)
CATEGORY LABEL: Fulfilled
--
MOLECULE: NC(=O)c1ccc(-c2nc(-c3ccc4c(c3)OCCO4)c(-c3ccccn3)[nH]2)cc1
ASSAYED SYSTEM: Fibroblast growth factor receptor 4 (Homo sapiens) (UniProt P22455)
CATEGORY LABEL: Fulfilled
--
MOLECULE: O=c1cc(N2CCOCC2)oc2c(-c3ccccc3)cccc12
ASSAYED SYSTEM: Fibroblast growth factor receptor 4 (Homo sapiens) (UniProt P22455)
CATEGORY LABEL: Not fulfilled
--
MOLECULE: CCCC(=O)Oc1ccc2[nH]c(C(=O)c3cc4ccccc4[nH]3)cc2c1
ASSAYED SYSTEM: Fibroblast growth factor receptor 4 (Homo sapiens) (UniProt P22455)
CATEGORY LABEL: Not fulfilled
--
MOLECULE: O=C(NC(NC(=S)Nc1ccc(F)c([N+](=O)[O-])c1)C(Cl)(Cl)Cl)C(c1ccccc1)c1ccccc1 (stereo unspecified)
ASSAYED SYSTEM: Fibroblast growth factor receptor 4 (Homo sapiens) (UniProt P22455)
CATEGORY LABEL: Not fulfilled
--
MOLECULE: O=C(O)/C=C/c1cc(Br)c(Br)c(Br)c1Br
ASSAYED SYSTEM: Fibroblast growth factor receptor 4 (Homo sapiens) (UniProt P22455)
CATEGORY LABEL: Fulfilled
--
MOLECULE: O=C1NC(=O)c2c1c1c3ccccc3[nH]c1n1cncc21
ASSAYED SYSTEM: Fibroblast growth factor receptor 4 (Homo sapiens) (UniProt P22455)
CATEGORY LABEL: Not fulfilled
--
MOLECULE: CSc1nc(-c2ccc(F)cc2)c(-c2ccnc(NC(C)c3ccccc3)c2)[nH]1 (stereo unspecified)
ASSAYED SYSTEM: Fibroblast growth factor receptor 4 (Homo sapiens) (UniProt P22455)
CATEGORY LABEL: Not fulfilled
--
MOLECULE: O=C(c1ccccc1)c1ccc(N2CCOCC2)cc1O
ASSAYED SYSTEM: Fibroblast growth factor receptor 4 (Homo sapiens) (UniProt P22455)
CATEGORY LABEL: Fulfilled
--
MOLECULE: COc1cc2c(cc1OC)-c1n[nH]c(Nc3cccc(F)c3)c1C2
ASSAYED SYSTEM: Fibroblast growth factor receptor 4 (Homo sapiens) (UniProt P22455)
CATEGORY LABEL: Fulfilled
--
MOLECULE: COc1cc2nccc(Oc3ccc(NC(=O)Nc4cc(C)on4)c(Cl)c3)c2cc1OC
ASSAYED SYSTEM: Fibroblast growth factor receptor 4 (Homo sapiens) (UniProt P22455)
CATEGORY LABEL: Not fulfilled

The origin of these recorded values is ChEMBL document CHEMBL2218924.
